Sourced from PubChem BioAssay

For each record, write down the corresponding composite z-score.
# TARGET ENTITY: E3 ubiquitin-protein ligase XIAP (Homo sapiens) (UniProt P98170)
# Sequence (P98170 whole entry, looked up): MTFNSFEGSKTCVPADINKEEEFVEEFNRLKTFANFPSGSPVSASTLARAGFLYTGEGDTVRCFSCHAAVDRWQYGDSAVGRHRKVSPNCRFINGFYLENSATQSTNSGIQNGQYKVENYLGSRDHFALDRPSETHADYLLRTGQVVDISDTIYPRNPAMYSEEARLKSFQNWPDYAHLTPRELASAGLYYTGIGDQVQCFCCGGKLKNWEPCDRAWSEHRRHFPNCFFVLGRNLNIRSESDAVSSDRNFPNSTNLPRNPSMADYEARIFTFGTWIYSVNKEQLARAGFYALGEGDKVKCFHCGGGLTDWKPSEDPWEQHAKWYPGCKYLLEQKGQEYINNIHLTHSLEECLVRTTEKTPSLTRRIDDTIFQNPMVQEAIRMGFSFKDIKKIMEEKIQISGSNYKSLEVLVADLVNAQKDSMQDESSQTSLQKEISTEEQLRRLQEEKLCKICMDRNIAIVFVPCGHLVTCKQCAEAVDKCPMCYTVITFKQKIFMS
# ASSAY OVERVIEW: XIAP binders, primary screen, biophysical, small-molecule microarray, fluorescence 635 nm (AID 1181);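 note: score merges 667 nm emission and signal to noise over triplicate slides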
# RUN CONDITIONS: small-molecule microarray binding, higher = more signal
One number for each entry.

>>> numeric_readout("COCCNC(=O)OCC1CCCC2(CC(OC(=O)NCc3cccc4ccccc34)CC(CCC(=O)N[C@@H](C)C(=O)OC)O2)O1 (stereo partly drawn)")
-0.0999
>>> numeric_readout("CCN1C(=O)[C@H]2[C@H]3[C@H](O)[C@H](O)CC(=NNC(=O)OCc4ccccc4)[C@H]3CC[C@H]2C1=O")
-0.102
>>> numeric_readout("CCOC(=O)[C@H](Cc1ccccc1)NC(=O)CCC1CC(OC(=O)NCc2ccc3c(c2)OCO3)CC2(CCCC(COC(=O)NCCOC)O2)O1 (stereo partly drawn)")
0.0374
>>> numeric_readout("O=C1[C@H]2[C@H]3[C@H](O)[C@H](O)CC(=NO[C@@H]4O[C@H](CO)[C@@H](O)[C@H](O)[C@H]4O)[C@H]3CC[C@H]2C(=O)N1c1ccc(F)cc1F")
0.394

For each of the molecules below, note its composite z-score.
1. CC(C)(C)N1C(=O)[C@H]2[C@H]3[C@H](O)[C@H](O)CC(=NOC[C@@H](O)COCc4ccco4)[C@H]3CC[C@H]2C1=O
2. C#CCCCON=C1[C@H]2CCn3c(=O)n([C@@H](CC)c4ccccc4)c(=O)n3[C@H]2[C@H](O)[C@@H]2O[C@H]12
3. CON=C[C@@H](OC)[C@H](C)C=CCC(=O)OC
4. CC1(C)O[C@H]2OC([C@H](O)CON3C(=O)c4ccccc4C3=O)[C@H](O)[C@H]2O1 (stereo partly drawn)
5. COc1ccc(COC(=O)NN=C2C[C@@H](O)[C@@H](O)[C@@H]3[C@@H]4C(=O)N(Cc5ccc6c(c5)OCO6)C(=O)[C@@H]4CC[C@H]23)cc1
6. COC(=O)CC=C[C@@H](C)[C@@H](C=NOC[C@@H](O)[C@H]1O[C@@H]2OC(C)(C)O[C@@H]2[C@H]1O)OC
7. CON(C)C(=O)c1nnc2c(n1)[nH]c1ccccc12
8. CCN1C(=O)[C@H]2[C@H]3[C@H](O)[C@H](O)CC(=NOCC(C)C)[C@H]3CC[C@H]2C1=O

Result string:
1. -0.334
2. -0.181
3. -0.162
4. -0.261
5. 0.0498
6. -0.158
7. 0.273
8. -0.122

Query string: Given the molecule `C#CCCCON=C1C[C@@H](O)[C@@H](O)[C@@H]2[C@@H]3C(=O)N([C@@H](C)c4ccccc4)C(=O)[C@@H]3CC[C@@H]12` , what is its reported composite z-score?
Result string: -0.124
